biological target: T1, soluble human EREG fragment having a mature EGF domain structure (R&D Systems cat. no. 1195-EP/CF) (human, UniProt O14944 63-108); assay: competitive ELISA on coated soluble human EREG fragment
T1 construct: bought; coated on ELISA plates; also called human epiregulin; recombinant human Epiregulin
T1 sequence (O14944 63-108 limits assumed): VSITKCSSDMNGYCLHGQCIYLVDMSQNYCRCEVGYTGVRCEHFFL
metricName: binding result

>>> result("H7-G1d/LB-k (antibody, human IgG1, kappa, V domains shown) VH: QDQLVQSGAEVKKPGASVKVSCKASGFNIKDTYIQWVRQAPGQGLEWMGRIDPLNGNTKYVPKFDGRVTITADTSTNTAYMELSSLRSEDTAVYYCVRSGTLFDFWGQGTLVTVSS VL: DIQMTQSPSSLSASVGDRVTITCKASQDIHKYIAWYQQKPGQAPRLLIQYTSTLQPGVPSRFSGSGSGTDYTFTISSLQPEDIATYYCLQYDNLRTFGGGTKVEIKR")
"binds"
>>> result("H44-G1d/LB-k (antibody, human IgG1, kappa, V domains shown) VH: QDQLVQSGAEVKKPGASVKVSCKASGFNIKDTYIQWVRQAPGQGLEWMGRIDPLNGNTKYSPKFQGRVTITADTSTNTAYMELSSLRSEDTAVYYCVRSGTLFDFWGQGTLVTVSS VL: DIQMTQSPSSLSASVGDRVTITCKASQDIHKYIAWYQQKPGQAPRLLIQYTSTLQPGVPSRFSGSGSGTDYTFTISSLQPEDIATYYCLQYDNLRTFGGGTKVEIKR")
"binds"
>>> result("H3-G1d/LB-k (antibody, human IgG1, kappa, V domains shown) VH: QDQLVQSGAEVKKPGASVKVSCKASGFNIKDTYIQWVRQAPGQGLEWMGRIDPLNGNTKYVDKFQGRVTITADTSTNTAYMELSSLRSEDTAVYYCVRSGTLFDFWGQGTLVTVSS VL: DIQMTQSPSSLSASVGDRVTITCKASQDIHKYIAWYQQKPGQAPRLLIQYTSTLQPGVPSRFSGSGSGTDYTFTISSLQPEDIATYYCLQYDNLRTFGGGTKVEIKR")
"binds"
